# Test system: CAF#5 (primary prostate cancer-associated fibroblasts of myCAF-like type)
# ASSAY_OVERVIEW: drug sensitivity score (DSS2, normalised partial AUC of dose-response, 72 h CellTiter-Glo viability) (DSS (dimensionless)); higher = more sensitive (stronger growth inhibition / cytotoxicity); extreme values may be limits of the assay
READOUT: drug sensitivity score

Here is how some compounds turned out for drug sensitivity score.
Nc1cccc2c1C(=O)N(C1CCC(=O)NC1=O)C2=O (stereo not given) [Pomalidomide] (tested concentration range 1-10000 nM) = 0
CCCCOc1nc(N)c2c(n1)N(Cc1cccc(CN3CCCC3)c1)CC(=O)N2 [Vesatolimod] (tested concentration range 1-10000 nM) = 0
CC(=O)O[C@@]12CO[C@@H]1C[C@H](O)[C@@]1(C)C(=O)[C@H](O)C3=C(C)[C@@H](OC(=O)[C@H](O)[C@@H](NC(=O)OC(C)(C)C)c4ccccc4)C[C@@](O)([C@@H](OC(=O)c4ccccc4)[C@H]21)C3(C)C [Docetaxel] (tested concentration range 0.1-1000 nM) = 17.2

*Q* Tell me the measured drug sensitivity score of CC(C)N(CCCNC(=O)Nc1ccc(C(C)(C)C)cc1)C[C@H]1O[C@@H](n2cc(Br)c3c(N)ncnc32)[C@H](O)[C@@H]1O [SGC0946] (tested concentration range 1-10000 nM) , please.
*A* 0

*Q* Tell me the measured drug sensitivity score of O=C(/C=C/c1cccc(S(=O)(=O)Nc2ccccc2)c1)NO [Belinostat] (tested concentration range 1-10000 nM) , please.
*A* 8.6

====

# System: CAF#5
# ASSAY_OVERVIEW: drug sensitivity score (DSS2, normalised partial AUC of dose-response, 72 h CellTiter-Glo viability) (DSS (dimensionless)); higher = more sensitive (stronger growth inhibition / cytotoxicity); extreme values may be limits of the assay
READOUT: drug sensitivity score

O=C(O)CNC(=O)c1c(O)c2ccccc2n(Cc2ccccc2)c1=O [IOX-2] (tested concentration range 2.5-25000 nM) = 0
CCNC(=O)CCC/C=C\C[C@@H]1[C@@H](/C=C/[C@@H](O)CCc2ccccc2)[C@H](O)C[C@@H]1O [Bimatoprost] (tested concentration range 0.6-5500 nM) = 0
Cc1cc(Nc2ncc(Cl)c(Nc3ccccc3S(=O)(=O)C(C)C)n2)c(OC(C)C)cc1C1CCNCC1 [Ceritinib] (tested concentration range 0.2-2500 nM) = 2.6

*Q* Form field: drug sensitivity score recorded for CC[C@@H]1[C@H](F)C(=O)N[C@@H]1COc1nccc2cc(C(N)=O)c(OC)cc12 (tested concentration range 1-10000 nM) with CAF#5 (enter value)
*A* 0

*Q* Form field: drug sensitivity score recorded for Cc1c(F)cc(C(=O)NC2CC2)cc1-c1ccc(C(=O)NCC(C)(C)C)cn1 [Losmapimod] (tested concentration range 1-10000 nM) with CAF#5 (enter value)
*A* 0

*Q* Form field: drug sensitivity score recorded for COCCNCc1ccc(-c2cc3nccc(Oc4ccc(NC(=S)NC(=O)Cc5ccc(F)cc5)cc4F)c3s2)nc1 [Glesatinib] (tested concentration range 0.2-2500 nM) with CAF#5 (enter value)
*A* 4.3

*Q* Form field: drug sensitivity score recorded for CC(C)NC(=O)COc1cccc(-c2nc(Nc3ccc4[nH]ncc4c3)c3ccccc3n2)c1 [KD025] (tested concentration range 0.5-5000 nM) with CAF#5 (enter value)
*A* 1.1

*Q* Form field: drug sensitivity score recorded for CCc1nc(C(N)=O)c(Nc2ccc(N3CCC(N4CCN(C)CC4)CC3)c(OC)c2)nc1NC1CCOCC1 [Gilteritinib] (tested concentration range 0.1-1000 nM) with CAF#5 (enter value)
*A* 0.1

*Q* Form field: drug sensitivity score recorded for CC(C)[C@@H](CS(=O)(=O)C(C)C)N1C(=O)[C@@](C)(CC(=O)O)C[C@H](c2cccc(Cl)c2)[C@H]1c1ccc(Cl)cc1 [KRT-232] (tested concentration range 1-10000 nM) with CAF#5 (enter value)
*A* 10.9

*Q* Form field: drug sensitivity score recorded for CN1CCN(c2ccc(C(=O)Nc3n[nH]c4ccc(Cc5cc(F)cc(F)c5)cc34)c(NC3CCOCC3)c2)CC1 [Entrectinib] (tested concentration range 0.1-1000 nM) with CAF#5 (enter value)
*A* 0.8

*Q* Form field: drug sensitivity score recorded for COc1cc(OC2CCN(C)CC2)ccc1Nc1ncc2c(n1)n(C1CCCC1)c(=O)n2C [AZ 3146] (tested concentration range 1-10000 nM) with CAF#5 (enter value)
*A* 0.7

*Q* Form field: drug sensitivity score recorded for CCOC(=O)CCNc1cc(N2CCc3ccccc3CC2)nc(-c2ccccn2)n1 [GSK-J4] (tested concentration range 10-100000 nM) with CAF#5 (enter value)
*A* 0.3

*Q* Form field: drug sensitivity score recorded for CC1(C)NC(=O)N(c2ccc([N+](=O)[O-])c(C(F)(F)F)c2)C1=O [Nilutamide] (tested concentration range 1-10000 nM) with CAF#5 (enter value)
*A* 0

*Q* Form field: drug sensitivity score recorded for CC(C)(C#N)c1cc(Cn2cncn2)cc(C(C)(C)C#N)c1 [Anastrozole] (tested concentration range 1-10000 nM) with CAF#5 (enter value)
*A* 0

*Q* Form field: drug sensitivity score recorded for CC(C)C(=O)Nc1ccc([N+](=O)[O-])c(C(F)(F)F)c1 [Flutamide] (tested concentration range 1-10000 nM) with CAF#5 (enter value)
*A* 0.5

*Q* Form field: drug sensitivity score recorded for CO[C@H]1C[C@@H]2CC[C@@H](C)[C@@](O)(O2)C(=O)C(=O)N2CCCC[C@H]2C(=O)O[C@H]([C@H](C)C[C@@H]2CC[C@@H](OCCO)[C@H](OC)C2)CC(=O)[C@H](C)/C=C(\C)[C@@H](O)[C@@H](OC)C(=O)[C@H](C)C[C@H](C)/C=C/C=C/C=C/1C [Everolimus] (tested concentration range 0-100 nM) with CAF#5 (enter value)
*A* 9.7

*Q* Form field: drug sensitivity score recorded for C[C@@H](Oc1ccc2[nH]nc(/C=C/c3cnn(CCO)c3)c2c1)c1c(Cl)cncc1Cl (tested concentration range 0.1-1000 nM) with CAF#5 (enter value)
*A* 6.7

====

# Test system: CAF#2 (primary prostate cancer-associated fibroblasts of iCAF-like type)
# ASSAY_OVERVIEW: drug sensitivity score (DSS2, normalised partial AUC of dose-response, 72 h CellTiter-Glo viability) (DSS (dimensionless)); higher = more sensitive (stronger growth inhibition / cytotoxicity); extreme values may be limits of the assay
I would appreciate it if you labelled entries Satisfied when drug sensitivity score is 20 or higher, otherwise Not satisfied.

The following compounds have reported results that may help.
CON(C)C(=O)N1N=C(c2cc(F)ccc2F)S[C@@]1(CCCN)c1ccccc1 [Filanesib] (tested concentration range 0.1-1000 nM) = Not satisfied
CC[C@@H]1CN(C(=O)NCC(F)(F)F)C[C@@H]1c1cnc2cnc3[nH]ccc3n12 [Upadacitinib] (tested concentration range 1-10000 nM) = Not satisfied
Cc1nc(C(=O)NCC(=O)O)c(O)c2ccc(Oc3ccccc3)cc12 [Roxadustat] (tested concentration range 1-10000 nM) = Not satisfied
CC1(C)CC[C@]2(NC(=O)C(C)(F)F)CC[C@]3(C)[C@H](C(=O)C=C4[C@@]5(C)C=C(C#N)C(=O)C(C)(C)[C@@H]5CC[C@]43C)[C@@H]2C1 [Omaveloxolone] (tested concentration range 1-10000 nM) = Satisfied

Consider the record given below.
*Q* drug sensitivity score >= 20 for CC[C@H](CC#N)OC(=O)N[C@@H](C)c1cccc(NC(=O)Nc2ccc(-c3cnco3)c(OC)c2)c1 [AVN944] (tested concentration range 1-10000 nM) ?
*A* Not satisfied

====

# Test system: CAF#4 (primary prostate cancer-associated fibroblasts of iCAF-like type)
# ASSAY_OVERVIEW: drug sensitivity score (DSS2, normalised partial AUC of dose-response, 72 h CellTiter-Glo viability) (DSS (dimensionless)); higher = more sensitive (stronger growth inhibition / cytotoxicity); extreme values may be limits of the assay
I would appreciate it if you labelled entries 1 when drug sensitivity score is 3 or higher, otherwise -1.

The following molecules have reported results that may help.
CC(C)C[C@H](NC(=O)CNC(=O)c1cc(Cl)ccc1Cl)B(O)O [Ixazomib] (tested concentration range 0.1-1000 nM) = 1
CNCc1ccc(-c2[nH]c3cc(F)cc4c3c2CCNC4=O)cc1 [Rucaparib] (tested concentration range 1-10000 nM) = 1
CN1CCN(c2ccc(C(=O)Nc3n[nH]c4ccc(Cc5cc(F)cc(F)c5)cc34)c(NC3CCOCC3)c2)CC1 [Entrectinib] (tested concentration range 0.1-1000 nM) = -1
COc1cccc2c1C(=O)c1c(O)c3c(c(O)c1C2=O)C[C@@](O)(C(=O)CO)C[C@@H]3O[C@H]1C[C@H](N)[C@@H](O)[C@H](C)O1 [Epirubicin] (tested concentration range 0.1-1000 nM) = -1
CC(=O)Nc1cccc(-n2c(=O)n(C3CC3)c(=O)c3c(Nc4ccc(I)cc4F)n(C)c(=O)c(C)c32)c1 [Trametinib] (tested concentration range 0-250 nM) = -1

*Q* drug sensitivity score >= 3 for Cc1cc(Nc2cc(N3CCN(C)CC3)nc(Sc3ccc(NC(=O)C4CC4)cc3)n2)n[nH]1 [Tozasertib] (tested concentration range 1-10000 nM) ?
*A* 1

*Q* drug sensitivity score >= 3 for NC1(C(=O)N[C@@H](CCO)c2ccc(Cl)cc2)CCN(c2nc[nH]c3nccc2-3)CC1 [Capivasertib] (tested concentration range 1-10000 nM) ?
*A* -1

Origin of values: the supplement of paper PMC12592484
